// provenance: paper PMC10740270

Biological target: KDM4A (Homo sapiens)
Construct: encoding human KDM4A residues 1–350 with a GST-6xHis tag at the N-terminal; GST-6xHis (followed by TEV cleavage site) (N, cleaved yes)
Experiment: Enzymatic HTRF-based assay, inhibition of H3K9me3 peptide demethylation
Conditions: HTRF, H3K9me3 peptide, 0.5 µM 2-OG, 400 nM KDM4A; ± standard error of fit
Readout Label: IC50 (µM)
Use µM as the unit, but write only the number.

IC50 reading for CCCNC(=O)c1cc(C(=O)O)ccn1 [Compound 6c, 2-(Propylcarbamoyl)isonicotinic acid] : 41.6

----------
Molecular target: KDM4A (Homo sapiens, UniProt O75164)
Construct: encoding human KDM4A residues 1–350 with a GST-6xHis tag at the N-terminal; GST-6xHis (followed by TEV cleavage site) (N, cleaved yes); made in house; host or cells: T7 Express E. coli
Sequence (O75164 1-350): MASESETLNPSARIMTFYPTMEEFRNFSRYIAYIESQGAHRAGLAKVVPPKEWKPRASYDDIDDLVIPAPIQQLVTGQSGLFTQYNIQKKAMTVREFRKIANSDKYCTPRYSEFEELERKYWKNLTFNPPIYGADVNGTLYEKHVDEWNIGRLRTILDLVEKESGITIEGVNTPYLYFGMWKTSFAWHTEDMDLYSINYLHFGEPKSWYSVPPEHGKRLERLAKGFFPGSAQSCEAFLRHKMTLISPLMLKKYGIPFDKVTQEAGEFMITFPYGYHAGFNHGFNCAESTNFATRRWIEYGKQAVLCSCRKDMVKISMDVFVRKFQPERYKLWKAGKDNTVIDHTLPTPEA
Assay: Bio-layer interferometry (BLI) binding to biotinylated KDM4A
Conditions: lipophilic ligand efficiency score, method of ref 58
Threshold check on LLE: strictly below 2 is criterion met; on or above 2 is criterion not met.

CCCNC(=O)c1cc(C(=O)O)ccn1 [Compound 6c, 2-(Propylcarbamoyl)isonicotinic acid] = criterion not met
COC(=O)c1ccnc(C(=O)NCc2nc3ccccc3n2C)c1 [Compound 5d] = criterion met
O=C(O)c1ccnc(C(=O)NCc2cnco2)c1 [Compound 6b] = criterion not met
CNC(=O)c1cc(C(=O)O)ccn1 [Compound 1, 2-(methylcarbamoyl)isonicotinic acid] = criterion not met

Alright, here's another compound for you.
For O=C(O)c1ccnc(C(=O)NCc2ccccc2)c1 [Compound 6a, 2-(benzylcarbamoyl)isonicotinic acid] , is the recorded LLE below the cut-off of 2? criterion not met
